# assay.system: human JAK1 (a.a. 837-1142) (Homo sapiens, UniProt P23458)
# Construct: human JAK1 (a.a. 837-1142); His tag (N); made in house; host or cells: insect cells (baculovirus)
# Sequence (P23458 849-1154): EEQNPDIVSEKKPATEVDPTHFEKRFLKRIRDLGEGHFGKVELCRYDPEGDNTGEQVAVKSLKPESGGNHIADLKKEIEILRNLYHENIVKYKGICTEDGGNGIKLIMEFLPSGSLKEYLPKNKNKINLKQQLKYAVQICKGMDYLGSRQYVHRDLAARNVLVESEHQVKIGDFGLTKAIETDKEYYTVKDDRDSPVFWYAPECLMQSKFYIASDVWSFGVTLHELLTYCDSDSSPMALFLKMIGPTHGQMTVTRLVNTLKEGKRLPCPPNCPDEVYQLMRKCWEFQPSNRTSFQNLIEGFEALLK
# measurement.description: In vitro JAK kinase assay (HTRF, phosphorylation of a biotinylated peptide), JAK1
# Assay type: biochemical
# cond: Assay Conditions 1 mM ATP
pIC50: −log10 of the molar value. Where a name gives a salt, the structure may show the parent alone.
test.readout: pIC50

Worked set:
• Cc1cnc(N2CC[C@H]([C@H](CC#N)n3cc(-c4ncnc5[nH]ccc45)cn3)C2)c(C#N)n1 [Example 145, trifluoroacetate] = > 7.30
• CSc1ccnc(N2CC[C@H]([C@H](CC#N)n3cc(-c4ncnc5[nH]ccc45)cn3)C2)c1C#N [Example 127, trifluoroacetate] = > 7.30

Proceed to the following item.
State, in one line, measured pIC50 of N#CC[C@@H]([C@H]1CCN(c2nccc(C(F)(F)F)c2C#N)C1)n1cc(-c2ncnc3[nH]ccc23)cn1 [Example 50, trifluoroacetate]
> 7.30

All values here come from patent US8716303B2.
